This collection of values is drawn from paper PMC12515225.

molecular target: UniProtKB Q13547
Sequence (Q13547 whole entry): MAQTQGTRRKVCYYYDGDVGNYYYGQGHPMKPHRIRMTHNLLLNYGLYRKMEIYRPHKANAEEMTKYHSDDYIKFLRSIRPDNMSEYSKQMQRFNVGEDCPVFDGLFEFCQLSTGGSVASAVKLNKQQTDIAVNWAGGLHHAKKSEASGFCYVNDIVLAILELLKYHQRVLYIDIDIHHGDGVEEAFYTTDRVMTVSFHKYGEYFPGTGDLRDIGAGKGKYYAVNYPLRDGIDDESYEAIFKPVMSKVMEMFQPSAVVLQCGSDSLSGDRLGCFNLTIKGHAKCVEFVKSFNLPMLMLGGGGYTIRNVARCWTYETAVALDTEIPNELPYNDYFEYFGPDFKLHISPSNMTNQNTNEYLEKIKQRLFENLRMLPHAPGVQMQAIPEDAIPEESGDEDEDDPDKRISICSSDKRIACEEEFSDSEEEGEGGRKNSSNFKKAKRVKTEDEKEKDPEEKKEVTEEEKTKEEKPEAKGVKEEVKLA
Outcome measure: IC50 (µM)
Numbers only, in µM.

Ask: Write down IC50 measured for item O=C(CCCCCCC(=O)Nc1cccc(-c2ccccn2)n1)NO
Reply: 0.44

====

biological target: HDAC2 (Homo sapiens, UniProt Q92769)
Sequence (Q92769 whole entry): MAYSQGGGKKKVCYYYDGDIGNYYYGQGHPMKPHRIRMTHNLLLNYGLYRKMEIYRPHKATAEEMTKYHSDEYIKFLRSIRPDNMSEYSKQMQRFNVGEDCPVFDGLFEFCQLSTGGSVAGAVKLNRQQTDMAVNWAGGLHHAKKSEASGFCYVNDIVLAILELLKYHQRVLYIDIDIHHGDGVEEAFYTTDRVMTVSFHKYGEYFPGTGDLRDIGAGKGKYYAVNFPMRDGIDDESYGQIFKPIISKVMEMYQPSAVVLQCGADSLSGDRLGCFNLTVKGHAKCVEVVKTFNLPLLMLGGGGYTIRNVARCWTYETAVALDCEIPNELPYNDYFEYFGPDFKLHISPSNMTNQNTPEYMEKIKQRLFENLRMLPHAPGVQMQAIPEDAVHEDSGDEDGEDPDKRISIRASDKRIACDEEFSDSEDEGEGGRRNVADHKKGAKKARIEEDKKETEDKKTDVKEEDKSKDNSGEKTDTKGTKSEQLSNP
Outcome measure: pIC50
Answers are plain numbers, as −log10 of the molar value.

Ask: Let me know recorded pIC50 for O=C(NO)c1cccc(-c2ccccn2)n1 [3A, N-hydroxy[2,2'-bipyridine]-6-carboxamide] , thanks.
Reply: 6.05
